- Target Of Assay: human HSP90α (Homo sapiens, UniProt P07900)
- Method Notes: ATP/NADH-coupled ATPase assay
- Type: biochemical
pIC50: −log10 of the molar value.
Readout Type: pIC50

1) CC[C@@H](O)[C@H](C)/C=C/C(=O)[C@@H](C)[C@H](O)[C@H](C)[C@H]1OC(=O)/C(C)=C/C(C)=C/[C@@H](C)[C@@H](O)[C@@H](C)C/C(C)=C/C=C/[C@@H]1OC	~4.30

----------
- Target Of Assay: vacuolar-type ATPase (V-ATPase) (Saccharomyces cerevisiae, UniProt P25515+P32563)
- Method Notes: enzyme-coupled ATPase assay
pIC50: −log10 of the molar value.
Readout Type: pIC50

1. CC[C@@H](O)[C@H](C)/C=C/C(=O)[C@@H](C)[C@H](O)[C@H](C)[C@H]1OC(=O)/C(C)=C/C(C)=C/[C@@H](C)[C@@H](O)[C@@H](C)C/C(C)=C/C=C/[C@@H]1OC [oxohygrolidin]	~6.60
